Data origin: PubChem BioAssay AID504339

- target or test system: Lysine-specific demethylase 4A (Homo sapiens)
- assay overview: qHTS Assay for Inhibitors of JMJD2A-Tudor Domain; also: nearly all actives have a fitted effect of over 50% in size; also: potency is read from the fitted curve at half-maximal effect
- cond: AlphaScreen JMJD2A-Tudor / H3K4me3 peptide binding; series mostly up to 114 µM
Hit rate of the full screen: of about 390,000 compounds, about 17,000 (4.4%) were called active. Roughly 8% stayed inconclusive and do not appear here. The sample as a whole holds a higher share of actives than the screen did.
value type: Potency

Completed entries (count: 5):
| molecule | target or test system | Potency |
| --- | --- | --- |
| COc1cccc(CNC(=O)CSc2c3c(nc4cc(Cl)ccc24)CCCC3)c1 | Lysine-specific demethylase 4A (Homo sapiens) | inactive |
| CC(=O)N1CC[n+]2c(-c3ccc([N+](=O)[O-])cc3)csc21 | Lysine-specific demethylase 4A (Homo sapiens) | 7.94 µM (active) |
| O=C1CCc2cc(S(=O)(=O)Nc3cccc(Oc4ccccc4)c3)ccc2N1 | Lysine-specific demethylase 4A (Homo sapiens) | inactive |
| COC(=O)C(C)C1Sc2ccccc2NC1=O (stereo unspecified) | Lysine-specific demethylase 4A (Homo sapiens) | inactive |
| COc1ccc(/C=C2\CCc3ccccc3C2=O)c(OC)c1OC | Lysine-specific demethylase 4A (Homo sapiens) | inactive |

With those in mind, consider the next molecule.
In plain terms, COc1ccc(C2Sc3ccccc3NC3=C2C(=O)c2ccccc23)c(OC)c1OC (stereo unspecified) has a documented Potency of 14.1 µM (active)

----------
- target or test system: Lysine-specific demethylase 4A (Homo sapiens)
- assay overview: qHTS Assay for Inhibitors of JMJD2A-Tudor Domain; also: nearly all actives have a fitted effect of over 50% in size
- cond: AlphaScreen JMJD2A-Tudor / H3K4me3 peptide binding; series mostly up to 114 µM
The whole screen tested about 390,000 compounds, of which about 17,000 (4.4%) were called active. Not shown: some 8% with an inconclusive outcome. Calls follow the shape of the dose curve; as a rule, active = well fitted inhibition curve with a large enough effect; inconclusive = small, poorly fitted or top-dose-only effect; inactive = no such curve, though single readings can be large or run the other way. This excerpt belongs to a sample that is enriched for actives.
Could you please pick one outcome from this set? 1 for active, 0 for inactive

| molecule | class name |
| --- | --- |
| O=C(CN1C(=O)COc2ccc(S(=O)(=O)N3CCCCCC3)cc21)N1CCN(c2cccc(C(F)(F)F)c2)CC1 | 0 |

Input line: Lab log entry: COCCCNCC(=O)Nc1sc(C)c(C)c1C(=O)OC — outcome as called in the assay?
Output line: 1

Input line: Lab log entry: COC(=O)c1c(NC(=O)c2c(Cl)cnn2C)sc(C)c1C — outcome as called in the assay?
Output line: 0

----------
- target or test system: Lysine-specific demethylase 4A (Homo sapiens) (UniProt O75164)
- Sequence (O75164 whole entry, looked up, the tested form may be a part): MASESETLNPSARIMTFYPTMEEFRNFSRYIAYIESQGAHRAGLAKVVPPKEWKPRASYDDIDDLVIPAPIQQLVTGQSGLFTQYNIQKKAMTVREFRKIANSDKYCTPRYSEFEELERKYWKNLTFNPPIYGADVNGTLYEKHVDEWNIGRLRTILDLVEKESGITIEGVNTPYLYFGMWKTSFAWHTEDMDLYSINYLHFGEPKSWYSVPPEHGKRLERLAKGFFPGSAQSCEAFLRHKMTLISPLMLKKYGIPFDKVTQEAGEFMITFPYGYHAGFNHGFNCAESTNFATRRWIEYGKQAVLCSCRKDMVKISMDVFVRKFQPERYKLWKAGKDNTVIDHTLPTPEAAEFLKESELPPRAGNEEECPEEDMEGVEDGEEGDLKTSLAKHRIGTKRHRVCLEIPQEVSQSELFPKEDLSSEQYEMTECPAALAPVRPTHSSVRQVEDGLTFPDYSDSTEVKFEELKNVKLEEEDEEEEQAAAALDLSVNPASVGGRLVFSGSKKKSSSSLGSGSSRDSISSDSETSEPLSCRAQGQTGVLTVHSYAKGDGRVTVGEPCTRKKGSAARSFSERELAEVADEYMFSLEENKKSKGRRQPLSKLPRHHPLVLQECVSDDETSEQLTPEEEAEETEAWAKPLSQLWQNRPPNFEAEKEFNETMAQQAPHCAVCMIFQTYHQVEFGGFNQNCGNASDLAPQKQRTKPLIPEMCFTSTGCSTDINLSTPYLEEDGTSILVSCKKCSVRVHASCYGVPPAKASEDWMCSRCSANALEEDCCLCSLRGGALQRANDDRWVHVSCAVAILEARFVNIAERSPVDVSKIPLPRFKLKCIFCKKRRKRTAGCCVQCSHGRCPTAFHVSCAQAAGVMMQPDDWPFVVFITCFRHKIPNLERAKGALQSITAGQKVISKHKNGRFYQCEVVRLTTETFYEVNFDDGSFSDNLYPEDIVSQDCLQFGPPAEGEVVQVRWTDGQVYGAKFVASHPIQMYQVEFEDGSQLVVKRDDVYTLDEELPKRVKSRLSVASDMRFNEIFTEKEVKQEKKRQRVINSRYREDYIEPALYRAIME
- assay overview: qHTS Assay for Inhibitors of JMJD2A-Tudor Domain; also: nearly all actives have a fitted effect of over 50% in size
- cond: AlphaScreen JMJD2A-Tudor / H3K4me3 peptide binding; series mostly up to 114 µM
In all, about 390,000 compounds went through this assay and about 17,000 (4.4%) were called active. Roughly 8% stayed inconclusive and do not appear here. Calls follow the shape of the dose curve; as a rule, active = well fitted inhibition curve with a large enough effect; inconclusive = small, poorly fitted or top-dose-only effect; inactive = no such curve, though single readings can be large or run the other way. What follows is part of a selection rich in actives, with near analogues and random picks from the rest.
Could you please pick one outcome from this set? 1 for active, 0 for inactive

Some solved cases for reference:
| molecule | class name |
| --- | --- |
| Cc1cc(C)nc(Nc2n[nH]c(-c3ccccc3N)n2)n1 | 1 |
| Cc1ccc(S(=O)(=O)N2CCN(c3ccccc3)CC2)cc1C | 0 |
| CC(C)c1ccc(Cn2c(COc3ccccc3)nc3ccccc32)cc1 | 0 |
| Oc1c(C(c2ccc(F)cc2)N2CCN(Cc3ccccc3)CC2)sc2nc(-c3ccco3)nn12 (stereo unspecified) | 0 |
| Cc1ccc(NC(=O)c2ccc(CN3CC(=O)N4CCCCC4C3=O)cc2)c(Cl)c1 (stereo unspecified) | 0 |

Input line: Lab log entry: O=C(C1CCN(Cc2ccc(Cl)cc2)CC1)N1CCN(Cc2ccc3c(c2)OCO3)CC1 — outcome as called in the assay?
Output line: 1

Input line: Lab log entry: COc1ccc(CNC(=O)c2cc3c(s2)-c2ccccc2OC3)cc1 — outcome as called in the assay?
Output line: 0

Input line: Lab log entry: CCCOc1ccccc1-c1nc(SCCC(=O)O)n[nH]1 — outcome as called in the assay?
Output line: 0

Input line: Lab log entry: CCc1nnc(SCc2c(F)cccc2Cl)c2cc3sccc3n12 — outcome as called in the assay?
Output line: 0

Input line: Lab log entry: Cc1cc(C)n(-c2nc(C(F)(F)F)nc3ccccc23)n1 — outcome as called in the assay?
Output line: 0

Input line: Lab log entry: Cc1cc(C)n(-c2nnc(N3CCN(c4ccccc4)CC3)nn2)n1 — outcome as called in the assay?
Output line: 1

Input line: Lab log entry: Cn1c2ccccc2c(=O)c2c(=O)n(Cc3ccco3)c(COc3ccccc3)nc21 — outcome as called in the assay?
Output line: 1

Input line: Lab log entry: O=C(Nc1ccccc1)N1CCC(C(=O)N2CCN(Cc3ccccc3)CC2)CC1 — outcome as called in the assay?
Output line: 0

Input line: Lab log entry: COc1ccc(Cl)cc1NC(=O)CCS(=O)(=O)c1cc2c(cc1C)NC(=O)CO2 — outcome as called in the assay?
Output line: 0

Input line: Lab log entry: COc1ccc(Cl)cc1NC(=O)CCC(=O)c1ccc(C)cc1 — outcome as called in the assay?
Output line: 0
